The measured values listed here are drawn from patent US20230123334A1.

# Test system: HEK293 cells
# test.name: Preliminary screening as DNA vectors, GFP transfection of HEK293 cells
# Type: cell-based
# conditions.used: HEK293 cells; lipid/DOPE liposome with 75 ng plasmid DNA (psin-EGFP-IRES-Puro); number of cells expressing GFP divided by total number of nuclei (Hoechst)
observation.type: Absolute DNA transfection efficiency in HEK293 cells
Give me the value, and tack the unit on after it.

Check out these entries, answers already filled in.
INSERT INTO measurements (molecule_smiles, result) VALUES
  ('CCCCCCCCCCCCCCCCNc1nc(NCCCCCCCCCCCCCCCC)nc(NCC2CCN(C)CC2)n1', '0.0%'),
  ('CCCCCCCCCSc1nc(NCCCN2CCOCC2)nc(SCCCCCCCCC)n1', '19.1%'),
  ('CCCCCCCCCCSc1nc(NCCCN(C)C)nc(SCCCCCCCCCC)n1', '23.6%');

Read the next record carefully.
Field Absolute DNA transfection efficiency in HEK293 cells (entry CCCCCCCCCNc1nc(NCCCCCCC)nc(NCCCN(C)C)n1 ) reads 0.0%

###

# Tested on: HEK293 cells
# test.name: Preliminary screening as mRNA vectors, EGFP mRNA transfection of HEK293 cells
# Type: cell-based
# conditions.used: HEK293 cells, 96-well plates, EGFP mRNA 50 ng per well; percentage of GFP fluorescent cells relative to total number of cells (Hoechst)
If the reported Absolute mRNA transfection efficiency in HEK293 cells equals or exceeds 0.3%, assign TRUE. If not, assign FALSE.

INSERT INTO measurements (molecule_smiles, class) VALUES
  ('CCCCCCCCCCCCCCCCCCSc1nc(NCCN2CCCCC2)nc(SCCCCCCCCCCC)n1', 'TRUE');

In: Absolute mRNA transfection efficiency in HEK293 cells >= 0.3% for CCCCCCCCCCCCCCCSc1nc(NCCCN2CCN(C)CC2)nc(SCCCCCCCCC)n1 ?
Out: TRUE

In: Hi, just wondering whether CCCCCCCCCCCCCCCCNc1nc(NCCCCCCC)nc(NCCN(CC)CC)n1 shows Absolute mRNA transfection efficiency in HEK293 cells of 0.3% or higher.
Out: TRUE

In: Dear colleague, could you confirm whether CCCCCCCCCCCNc1nc(NCCCCCCC)nc(NCCN2CCCC2)n1 has Absolute mRNA transfection efficiency in HEK293 cells at or above 0.3%?
Out: TRUE

###

# System: HEK293 cells
# test.name: Preliminary screening as DNA vectors, GFP transfection of HEK293 cells
# Assay type: cell-based
# conditions.used: HEK293 cells; lipid/DOPE liposome with 75 ng plasmid DNA (psin-EGFP-IRES-Puro); number of cells expressing GFP divided by total number of nuclei (Hoechst)
Listed compounds paired with reported Absolute DNA transfection efficiency in HEK293 cells

Consider the worked cases shown below.
INSERT INTO measurements (compound, result) VALUES
  ('CCCCCCCCCCCCCCCNc1nc(NCCCCCCCCCCCCC)nc(NCCCN(C)C)n1 [Compound N13N15D6]', '0.3%'),
  ('CCCCCCCCCCCCCNc1nc(NCCCCCCCCCCCCC)nc(NCCN2CCCCC2)n1 [Compound N13N13D4]', '1.5%'),
  ('CCCCCCCCCCCCNc1nc(NCCCCCCCCCCC)nc(NCCN(C)C)n1 [Compound N11N12D1]', '0.0%');

// Absolute DNA transfection efficiency in HEK293 cells lookup, compound = CCCCCCCCCCCNc1nc(NCCCCCC)nc(NCCCN2CCOCC2)n1 [Compound N6N11D8] , result: 0.0%

###

# Tested on: MCF7 cells
# test.name: Transfection of MCF7 cell line, DNA vectors
# Format: cell-based
# Design: concentration or dose not given beside the values
# conditions.used: plasmid DNA, GFP cells / total cells
# Description: Cell line: MCF7 cells (ATCC HTB-22) Medium DMEM supplemented with […] fetal bovine serum Screening: cell transfection on 96-well plates Detection (readout): percentage of the number of GFP fluorescent cells relative to the total number of cells (the total number of cells was determined using nucleus dye Hoechst). Lipofectamine2000 was used as the positive control, according to the manufacturer's instructions. Method: the experimental method was basically the same with Example 4.
observation.type: Absolute DNA transfection efficiency in MCF7 cells

A selection of reference data follows.
INSERT INTO measurements (molecule_smiles, result) VALUES
  ('CCCCCCCCCCCSc1nc(NCCCCCCCC)nc(NCCCN(C)C)n1', '9.3%'),
  ('CCCCCCCCCCCCNc1nc(NCC2CCN(C)CC2)nc(SCCCCCCCCC)n1', '31.7%'),
  ('CCCCCCCCCCCSc1nc(NCCCCCCCC)nc(NCCN2CCN(C)CC2)n1', '20.1%'),
  ('CCCCCCCCCCCSc1nc(NCCCCCCCC)nc(NCCN2CCCC2)n1', '17.7%');

Measured Absolute DNA transfection efficiency in MCF7 cells, CCCCCCCCCCCSc1nc(NCCCN(C)C)nc(SCCCCCCC)n1 : 38.1%

###

# System: HEK293 cells
# test.name: Preliminary screening as mRNA vectors, EGFP mRNA transfection of HEK293 cells
# Assay type: cell-based
# conditions.used: EGFP mRNA 50 ng per well, 96-well plates; percentage of GFP fluorescent cells relative to total number of cells (Hoechst)
Each entry below carries its recorded Absolute mRNA transfection efficiency in HEK293 cells.
Please respond with the number in % and leave the unit unwritten.

Worked examples follow.
INSERT INTO measurements (molecule_smiles, tested_on, readout_number) VALUES
  ('CCCCCCCCCCCCCCCCCCSc1nc(NCCCCCCCC)nc(NCCN2CCOCC2)n1', 'HEK293 cells', 3.1),
  ('CCCCCCCCCCCCCNc1nc(NCCN(C)C)nc(SCCCCCCCCCCC)n1', 'HEK293 cells', 12.6),
  ('CCCCCCCCCCCCCCCNc1nc(NCCN(CC)CC)nc(SCCCCCC)n1', 'HEK293 cells', 2.2);

Kindly note: HEK293 cells, CCCCCCCCNc1nc(NCCCN2CCN(C)CC2)nc(SCCCCCCC)n1 , Absolute mRNA transfection efficiency in HEK293 cells value reported: 1.7

Value (Absolute mRNA transfection efficiency in HEK293 cells, HEK293 cells) for record CCCCCCCCCCCCCCCCCCNc1nc(NCCN(CC)CC)nc(SCCCCCCCC)n1 = 12.8

The compound CCCCCCCCCCCCCCCCCCSc1nc(NCCCCCC)nc(NCCCN2CCN(C)CC2)n1 , tested on HEK293 cells, showed Absolute mRNA transfection efficiency in HEK293 cells of 55.4

Item CCCCCCCCCCCCCNc1nc(NCCN2CCCC2)nc(SCCCCCCC)n1 ; assay system HEK293 cells; Absolute mRNA transfection efficiency in HEK293 cells reported as 19.1

The compound CCCCCCCCCCCCN(CCCCCCCCCCCC)c1nc(NCCCN2CCOCC2)nc(SCCCCCCCCCCC)n1 on HEK293 cells: Absolute mRNA transfection efficiency in HEK293 cells was 0.4

Readout Absolute mRNA transfection efficiency in HEK293 cells for CCCCCCCCCCCNc1nc(NCCN2CCOCC2)nc(SCCCCCCCCC)n1 , test system HEK293 cells, was 44.8

Record for CCCCCCCCCCCCCCSc1nc(NCCCCCCCC)nc(NCCCN2CCOCC2)n1 under target or system HEK293 cells: Absolute mRNA transfection efficiency in HEK293 cells reported as 1.6

# Absolute mRNA transfection efficiency in HEK293 cells measured on HEK293 cells for item CCCCCCCCCCCCCCCCNc1nc(NCCN2CCCCC2)nc(SCCCCCCCC)n1 = 1.9

HEK293 cells assay, compound CCCCCCCCCCCCCCSc1nc(NCCCCCCCCCCC)nc(NCCN2CCCCC2)n1 , recorded Absolute mRNA transfection efficiency in HEK293 cells = 3.8

Note to self: Absolute mRNA transfection efficiency in HEK293 cells of CCCCCCCCCCCCCCCCCCNc1nc(NCCN2CCN(C)CC2)nc(SCCCCCCCCCCCCCCCCCC)n1 with HEK293 cells was 0.0

Note to self: Absolute mRNA transfection efficiency in HEK293 cells of CCCCCCCCCCCCCCSc1nc(NCCCCCCCCC)nc(NCCN2CCCCC2)n1 with HEK293 cells was 4.0

The reported HEK293 cells Absolute mRNA transfection efficiency in HEK293 cells of CCCCCCCCCCCCCCCCCCSc1nc(NCCCCCCC)nc(NCCCN(C)C)n1 is 87.5

Absolute mRNA transfection efficiency in HEK293 cells of CCCCCCCSc1nc(NCCCCCC)nc(NCCN2CCN(C)CC2)n1 , assay on HEK293 cells, is 1.9

Item CCCCCCCCCCCCNc1nc(NCCN(CC)CC)nc(SCCCCCC)n1 was tested on HEK293 cells; the reported Absolute mRNA transfection efficiency in HEK293 cells is 1.4
